Assay: Pharmacokinetics in SD rats after oral administration of FA extract, NA, NHE or NA-NHE (UPLC-MS/MS of plasma, DAS 3.1)
Format: in vivo, Sprague-Dawley (SD) rats
Conditions: rats, oral administration; naringin and neohesperidin determined as naringenin and hesperetin
Experimental: The 20 μl of β-glucuronidase and 15 μl of sulfatase were added into 50 μl of plasma sample. After vortexed for 30 s, the mixture was incubated at 37°C for 2 h in a water bath, then placed in ice water for 5 min to terminate the reaction ([Xu et al., 2019]). IS solution (20 µl, 5 μg/ml) and acetonitrile (1.0 ml) were added into the mixture and vortexed for 2 min. […] The plasma concentration of the studied compounds was determined according to the daily calibration curve.
Observable: Shape of the plasma concentration-time profile

C[C@@H]1O[C@@H](O[C@H]2[C@H](Oc3cc(O)c4c(c3)O[C@H](c3ccc(O)cc3)CC4=O)O[C@H](CO)[C@@H](O)[C@@H]2O)[C@H](O)[C@H](O)[C@H]1O :: Double-peak phenomenon
COc1ccc([C@@H]2CC(=O)c3c(O)cc(O)cc3O2)cc1O :: double peaks
O=C1C[C@@H](c2ccc(O)cc2)Oc2cc(O)cc(O)c21 :: double peaks
COc1ccc([C@@H]2CC(=O)c3c(O)cc(O[C@@H]4O[C@H](CO)[C@@H](O)[C@H](O)[C@H]4O[C@@H]4O[C@@H](C)[C@H](O)[C@@H](O)[C@H]4O)cc3O2)cc1O :: Double-peak phenomenon

---

test: Stability of the analytes in rat plasma (QC samples); assay type: in vitro ADME; conditions: -20 °C for one month, middle QC concentration (77.6 / 58.92 / 49.4 / 16.72 / 8.44 ng/mL), n = 6
Observable: Long-term Stability RE (%)
Unit % implied. Number only.

Requested read-out: Long-term Stability RE. Entry: COc1ccc(-c2cc(=O)c3c(OC)c(OC)c(OC)c(OC)c3o2)cc1OC
6.71

What about COc1ccc2ccc(=O)oc2c1CC1OC1(C)C (centres unmarked) ?
-13.52

What about COc1ccc([C@@H]2CC(=O)c3c(O)cc(O)cc3O2)cc1O ?
-8.58

What about COc1ccc2ccc(=O)oc2c1CC(O)C(C)(C)O (centres unmarked) [Meranzin hydrate, meranzin hydrate] ?
3.19

What about O=C1C[C@@H](c2ccc(O)cc2)Oc2cc(O)cc(O)c21 ?
12.09

---

I'd be grateful if you could share measured Long-term Stability RE for these entries.
test: Stability of the analytes in rat plasma (QC samples); format: in vitro ADME; conditions: -20 °C for one month, high QC concentration (3880 / 2946 / 2470 / 836 / 422.4 ng/mL), n = 6
Unit % implied. Number only.

Requested read-out: Long-term Stability RE. Entry: COc1ccc([C@@H]2CC(=O)c3c(O)cc(O)cc3O2)cc1O
-7.81

What about O=C1C[C@@H](c2ccc(O)cc2)Oc2cc(O)cc(O)c21 ?
-9.76

What about COc1ccc2ccc(=O)oc2c1CC1OC1(C)C (centres unmarked) ?
-7.37

What about COc1ccc(-c2cc(=O)c3c(OC)c(OC)c(OC)c(OC)c3o2)cc1OC ?
-3.36

What about COc1ccc2ccc(=O)oc2c1CC(O)C(C)(C)O (centres unmarked) [Meranzin hydrate, meranzin hydrate] ?
6.85

---

assay: Stability of the analytes in rat plasma (QC samples); format: in vitro ADME; conditions: room temperature 24 h, high QC concentration (3880 / 2946 / 2470 / 836 / 422.4 ng/mL), n = 6
I'd be grateful if you could share measured Short-term Stability RE for these entries.
Number first, unit second.

Requested read-out: Short-term Stability RE. Entry: COc1ccc2ccc(=O)oc2c1CC(O)C(C)(C)O (centres unmarked) [Meranzin hydrate, meranzin hydrate]
7.43%

What about COc1ccc(-c2cc(=O)c3c(OC)c(OC)c(OC)c(OC)c3o2)cc1OC ?
0.80%

What about O=C1C[C@@H](c2ccc(O)cc2)Oc2cc(O)cc(O)c21 ?
-13.49%

What about COc1ccc([C@@H]2CC(=O)c3c(O)cc(O)cc3O2)cc1O ?
-13.50%

What about COc1ccc2ccc(=O)oc2c1CC1OC1(C)C (centres unmarked) ?
-2.81%

---

assay: Pharmacokinetics in SD rats after oral administration of FA extract, NA, NHE or NA-NHE (UPLC-MS/MS of plasma, DAS 3.1); format: in vivo, Sprague-Dawley (SD) rats; conditions: male, Sprague-Dawley, rat, plasma, po, 10.8 g/kg, male SD rats, oral FA extract 10.8 g/kg of the original medicinal material; statistical moment parameters; n = 6; read-out: AUC(0-t)
Observable: log10(AUC(0-t)) (log10 of the value in ng·h/mL)
Values below are the log10 of the recorded AUC(0-t), with ng·h/mL as the unit.

Requested read-out: log10(AUC(0-t)). Entry: O=C1C[C@@H](c2ccc(O)cc2)Oc2cc(O)cc(O)c21
4.29

What about COc1ccc2ccc(=O)oc2c1CC(O)C(C)(C)O (centres unmarked) [Meranzin hydrate, meranzin hydrate] ?
4.05

What about COc1ccc(-c2cc(=O)c3c(OC)c(OC)c(OC)c(OC)c3o2)cc1OC ?
2.67

What about COc1ccc2ccc(=O)oc2c1CC1OC1(C)C (centres unmarked) ?
1.89

What about COc1ccc([C@@H]2CC(=O)c3c(O)cc(O)cc3O2)cc1O ?
3.63

---

test: Pharmacokinetics in SD rats after oral administration of FA extract, NA, NHE or NA-NHE (UPLC-MS/MS of plasma, DAS 3.1); type: in vivo, Sprague-Dawley (SD) rats; settings: male, Sprague-Dawley, rat, plasma, po, 10.8 g/kg, male SD rats, oral FA extract 10.8 g/kg of the original medicinal material; two-compartment model parameters; n = 6; read-out: CL/F (converted)
The label y is reserved for CL/F strictly under 4 L/h/kg; n covers values equal to or above it.

Say whether its CL/F is strictly beneath 4 L/h/kg. Entry: COc1ccc2ccc(=O)oc2c1CC(O)C(C)(C)O (stereo not drawn) [Meranzin hydrate, meranzin hydrate]
y

What about O=C1C[C@@H](c2ccc(O)cc2)Oc2cc(O)cc(O)c21 ?
y

What about COc1ccc(-c2cc(=O)c3c(OC)c(OC)c(OC)c(OC)c3o2)cc1OC ?
n

What about COc1ccc2ccc(=O)oc2c1CC1OC1(C)C (stereo not drawn) ?
n

What about C[C@@H]1O[C@@H](O[C@H]2[C@H](Oc3cc(O)c4c(c3)O[C@H](c3ccc(O)cc3)CC4=O)O[C@H](CO)[C@@H](O)[C@@H]2O)[C@H](O)[C@H](O)[C@H]1O ?
y

---

test: Pharmacokinetics in SD rats after oral administration of FA extract, NA, NHE or NA-NHE (UPLC-MS/MS of plasma, DAS 3.1); type: in vivo, Sprague-Dawley (SD) rats; conditions: male SD rats, oral FA extract 10.8 g/kg of the original medicinal material; two-compartment model parameters; n = 6
Observable: Ka (h⁻¹)
Unit h⁻¹ implied. Number only.

Requested read-out: Ka. Entry: COc1ccc2ccc(=O)oc2c1CC1OC1(C)C (stereo not drawn)
2.18

What about O=C1C[C@@H](c2ccc(O)cc2)Oc2cc(O)cc(O)c21 ?
1.94

What about COc1ccc(-c2cc(=O)c3c(OC)c(OC)c(OC)c(OC)c3o2)cc1OC ?
0.69

What about COc1ccc2ccc(=O)oc2c1CC(O)C(C)(C)O (stereo not drawn) [Meranzin hydrate, meranzin hydrate] ?
2.05

What about COc1ccc([C@@H]2CC(=O)c3c(O)cc(O)cc3O2)cc1O ?
3.17

What about COc1ccc([C@@H]2CC(=O)c3c(O)cc(O[C@@H]4O[C@H](CO)[C@@H](O)[C@H](O)[C@H]4O[C@@H]4O[C@@H](C)[C@H](O)[C@@H](O)[C@H]4O)cc3O2)cc1O ?
3.17

---

assay: Stability of the analytes in rat plasma (QC samples); assay type: in vitro ADME; conditions: room temperature 24 h, low QC concentration (3.88 / 2.946 / 2.47 / 0.836 / 0.4224 ng/mL), n = 6
Observable: Short-term Stability RE (%)
Unit % implied. Number only.

Requested read-out: Short-term Stability RE. Entry: O=C1C[C@@H](c2ccc(O)cc2)Oc2cc(O)cc(O)c21
-3.02

What about COc1ccc([C@@H]2CC(=O)c3c(O)cc(O)cc3O2)cc1O ?
4.10

What about COc1ccc2ccc(=O)oc2c1CC(O)C(C)(C)O (centres unmarked) [Meranzin hydrate, meranzin hydrate] ?
4.71

What about COc1ccc(-c2cc(=O)c3c(OC)c(OC)c(OC)c(OC)c3o2)cc1OC ?
7.01

What about COc1ccc2ccc(=O)oc2c1CC1OC1(C)C (centres unmarked) ?
-6.25

---

assay: Pharmacokinetics in SD rats after oral administration of FA extract, NA, NHE or NA-NHE (UPLC-MS/MS of plasma, DAS 3.1); assay type: in vivo, Sprague-Dawley (SD) rats; settings: Sprague-Dawley, rat, plasma; male SD rats, oral FA extract 10.8 g/kg of the original medicinal material; statistical moment parameters; n = 6; read-out: MRT(0-∞)
I'd be grateful if you could share measured MRT inf for these entries.
Unit h implied. Number only.

Requested read-out: MRT inf. Entry: COc1ccc2ccc(=O)oc2c1CC(O)C(C)(C)O (centres unmarked) [Meranzin hydrate, meranzin hydrate]
6.57

What about O=C1C[C@@H](c2ccc(O)cc2)Oc2cc(O)cc(O)c21 ?
9.75

What about COc1ccc([C@@H]2CC(=O)c3c(O)cc(O)cc3O2)cc1O ?
11.7

What about COc1ccc(-c2cc(=O)c3c(OC)c(OC)c(OC)c(OC)c3o2)cc1OC ?
4.8

What about COc1ccc2ccc(=O)oc2c1CC1OC1(C)C (centres unmarked) ?
6.39

Just for reference, paper PMC7319089 is where these values come from.
